Biological target: Peroxisome proliferator-activated receptor gamma (Homo sapiens, UniProt P37231)
Sequence (P37231 whole entry): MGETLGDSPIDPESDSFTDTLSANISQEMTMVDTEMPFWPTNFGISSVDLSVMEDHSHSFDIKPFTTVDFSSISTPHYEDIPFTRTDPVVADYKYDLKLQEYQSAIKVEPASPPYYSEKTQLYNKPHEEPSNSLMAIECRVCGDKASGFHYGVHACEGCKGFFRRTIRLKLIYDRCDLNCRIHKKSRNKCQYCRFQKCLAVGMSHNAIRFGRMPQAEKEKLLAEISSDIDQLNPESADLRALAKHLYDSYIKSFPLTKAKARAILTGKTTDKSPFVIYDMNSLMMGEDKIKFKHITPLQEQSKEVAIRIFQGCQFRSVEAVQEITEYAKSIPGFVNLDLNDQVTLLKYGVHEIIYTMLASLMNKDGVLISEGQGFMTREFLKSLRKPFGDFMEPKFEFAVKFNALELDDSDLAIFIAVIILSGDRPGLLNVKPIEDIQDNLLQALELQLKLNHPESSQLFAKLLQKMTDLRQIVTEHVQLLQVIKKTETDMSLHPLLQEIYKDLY
pKi: −log10 of the molar value.
# binarize pKi: threshold 7 inclusive, high side 1.0, low side 0.0

Problem: Evaluate CN(CCOc1ccc(CC(Nc2ccccc2Oc2ccccc2)C(=O)O)cc1)c1nc2ccccc2o1 (configuration not stated) : pKi at minimum 7?
Result: 1.0

Problem: Let us now turn to "CN(CCOc1ccc(C[C@H](Nc2ccccc2C(=O)c2ccccc2)C(=O)O)cc1)c1nc2ccccc2o1"
Result: 1.0

Problem: Let us now turn to "N[C@@H](Cc1ccc(OCc2ccccc2)cc1)C(=O)O"
Result: 0.0

Problem: Let us now turn to CN(CCOc1ccc(CC(Oc2ccccc2C(=O)c2ccccc2)C(=O)O)cc1)c1nc2ccccc2o1 (configuration not stated)
Result: 1.0

Problem: Let us now turn to "O=C(O)[C@H](Cc1ccc(OCc2ccccc2)cc1)/N=C1\CCCC\C1=C(\O)c1ccccc1"
Result: 0.0

Problem: Let us now turn to CC(/C=C(\O)c1ccccc1)=N\[C@@H](Cc1ccc(OCc2ccccc2)cc1)C(=O)O (stereo in doubt; 2)
Result: 1.0

Problem: Let us now turn to "O=C(c1ccccc1)c1ccc(N[C@@H](Cc2ccc(OCc3ccccc3)cc2)C(=O)O)cc1"
Result: 0.0

Problem: Let us now turn to Cc1c(C)c2c(c(C)c1O)CCC(C)(COc1ccc(C[C@H](Nc3ccccc3C(=O)c3ccccc3)C(=O)O)cc1)O2 (some centres not stated)
Result: 1.0

Problem: Let us now turn to CN(CCOc1ccc(CC(Nc2ccccc2C(=O)Cc2ccccc2)C(=O)O)cc1)c1nc2ccccc2o1 (configuration not stated)
Result: 1.0

Problem: Let us now turn to "COC(=O)[C@H](Cc1ccc(OCc2ccccc2)cc1)Nc1ccccc1C(=O)Nc1ccccc1"
Result: 0.0

Problem: Let us now turn to "COC(=O)[C@H](Cc1ccc(OCc2ccccc2)cc1)/N=C(\C)C1=C(O)c2ccccc2CC1"
Result: 0.0

Problem: Let us now turn to CN(CCOc1ccc(CC(Nc2cccc3c2C(=O)c2ccccc2C3=O)C(=O)O)cc1)c1nc2ccccc2o1 (configuration not stated)
Result: 1.0

Problem: Let us now turn to "CC1(COc2ccc(C[C@H](Nc3ccccc3C(=O)c3ccccc3)C(=O)O)cc2)CCCCC1"
Result: 1.0

Problem: Let us now turn to Cc1oc(-c2ccccc2)nc1CCOc1ccc(CC2SC(=O)NC2=O)cc1 (configuration not stated)
Result: 1.0

Problem: Let us now turn to "COC(=O)[C@H](Cc1ccc(OCc2ccccc2)cc1)/N=C(C)/C=C(\O)c1ccccc1"
Result: 0.0

Problem: Let us now turn to "O=C(O)[C@H](Cc1ccc(OCc2ccccc2)cc1)Nc1ccccc1Cc1ccccc1"
Result: 0.0

Problem: Let us now turn to "C/C(O)=C/C(C)=N/[C@@H](Cc1ccc(OCc2ccccc2)cc1)C(=O)O"
Result: 0.0

Problem: Let us now turn to "O=C(c1ccccc1)c1cccc(N[C@@H](Cc2ccc(OCc3ccccc3)cc2)C(=O)O)c1"
Result: 0.0

Problem: Let us now turn to "COC(=O)[C@H](Cc1ccc(OCc2ccccc2)cc1)Nc1ccccc1C(=O)OCc1ccccc1"
Result: 0.0

Problem: Let us now turn to "CC(/C=C(\O)c1ccccc1)=N\[C@@H](Cc1ccc(OCc2ccccc2)cc1)C(N)=O"
Result: 0.0

Problem: Let us now turn to CN(CCOc1ccc(CC(Sc2ccccc2C(=O)c2ccccc2)C(=O)O)cc1)c1nc2ccccc2o1 (configuration not stated)
Result: 1.0

Problem: Let us now turn to CC(/C=C(\O)c1ccccc1)=N\[C@@H](Cc1ccc(OCc2ccccc2)cc1)C(=O)O (stereo in doubt)
Result: 0.0

Problem: Let us now turn to "CCc1ccc(CCOc2ccc(C[C@H](Nc3ccccc3C(=O)c3ccccc3)C(=O)O)cc2)nc1"
Result: 1.0
